experimental-target: MOP receptor (Homo sapiens, UniProt P35372)
Construct: expressed in transfected cells; host or cells: HEK293
Sequence (P35372 whole entry): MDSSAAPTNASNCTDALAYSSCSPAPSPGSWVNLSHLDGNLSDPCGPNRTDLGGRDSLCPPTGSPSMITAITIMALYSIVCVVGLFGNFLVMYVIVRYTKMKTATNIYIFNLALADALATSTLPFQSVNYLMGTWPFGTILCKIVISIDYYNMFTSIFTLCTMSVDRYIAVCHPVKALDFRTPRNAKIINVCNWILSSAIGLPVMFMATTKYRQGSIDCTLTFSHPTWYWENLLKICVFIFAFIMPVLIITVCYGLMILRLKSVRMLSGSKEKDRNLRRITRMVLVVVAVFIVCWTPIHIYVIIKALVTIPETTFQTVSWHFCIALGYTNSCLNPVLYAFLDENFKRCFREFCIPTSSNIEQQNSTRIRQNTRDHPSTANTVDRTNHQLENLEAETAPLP
test-method-notes: cell-based
Where a SMILES comes first, the peptide text is derived from it. [ ]: non-standard residue; d: D form. Phe(4-NO2) = N[C@@H](Cc1ccc([N+](=O)[O-])cc1)C(=O)O; Phe(4-Cl) = N[C@@H](Cc1ccc(Cl)cc1)C(=O)O; Phe(4-F) = N[C@@H](Cc1ccc(F)cc1)C(=O)O; NMeR = CN[C@@H](CCCNC(=N)N)C(=O)O; Aoc = NCCCCCCCC(=O)O; Ahx = NCCCCCC(=O)O; Sar = CNCC(=O)O

>  <compound>
CC(C)C[C@H](NC(=O)[C@H](Cc1ccc(F)cc1)NC(=O)CN(C)C(=O)[C@@H](N)Cc1ccc(O)cc1)C(=O)N(C)[C@@H](CCCNC(=N)N)C(=O)N[C@H](CCCNC(=N)N)C(N)=O [KA302] (H-Y[Sar][Phe(4-F)]L[NMeR][dR]-NH2)

>  <experimental-target>
MOP receptor (Homo sapiens, UniProt P35372)

>  <EC50>
4 µM

$$$$
>  <compound>
CC(C)C[C@H](NC(=O)[C@H](Cc1ccc([N+](=O)[O-])cc1)NC(=O)CN(C)C(=O)[C@@H](N)Cc1ccc(O)cc1)C(=O)N[C@H](CCCNC(=N)N)C(=O)N[C@@H](CCCNC(=N)N)C(N)=O [KA205] (H-Y[Sar][Phe(4-NO2)]L[dR]R-NH2)

>  <experimental-target>
MOP receptor (Homo sapiens, UniProt P35372)

>  <EC50>
> 10 µM

$$$$
>  <compound>
CC(C)C[C@H](NC(=O)[C@H](Cc1ccc([N+](=O)[O-])cc1)NC(=O)CN(C)C(=O)[C@@H](N)Cc1ccc(O)cc1)C(=O)N[C@@H](CCCNC(=N)N)C(=O)N[C@H](CCCNC(=N)N)C(=O)NCCCCCCCC(N)=O [KA314] (H-Y[Sar][Phe(4-NO2)]LR[dR][Aoc]-NH2)

>  <experimental-target>
MOP receptor (Homo sapiens, UniProt P35372)

>  <EC50>
> 10 µM

$$$$
>  <compound>
CC(C)C[C@H](NC(=O)[C@H](Cc1ccc(Cl)cc1)NC(=O)CN(C)C(=O)[C@@H](N)Cc1ccc(O)cc1)C(=O)N[C@@H](CCCNC(=N)N)C(=O)N[C@H](CCCNC(=N)N)C(=O)NCCCCCC(N)=O [KA304] (H-Y[Sar][Phe(4-Cl)]LR[dR][Ahx]-NH2)

>  <experimental-target>
MOP receptor (Homo sapiens, UniProt P35372)

>  <EC50>
0.363 µM

$$$$
>  <compound>
CC(C)C[C@H](NC(=O)[C@H](Cc1ccc([N+](=O)[O-])cc1)NC(=O)CN(C)C(=O)[C@@H](N)Cc1ccc(O)cc1)C(=O)N[C@@H](CCCNC(=N)N)C(=O)N(C)[C@@H](CCCNC(=N)N)C(N)=O [KA310] (H-Y[Sar][Phe(4-NO2)]LR[NMeR]-NH2)

>  <experimental-target>
MOP receptor (Homo sapiens, UniProt P35372)

>  <EC50>
> 10 µM

$$$$
>  <compound>
CC(C)C[C@H](NC(=O)[C@H](Cc1ccc([N+](=O)[O-])cc1)NC(=O)CN(C)C(=O)[C@@H](N)Cc1ccc(O)cc1)C(=O)N[C@@H](CCCNC(=N)N)C(=O)N(C)[C@@H](CCCNC(=N)N)C(=O)NCCCCCCCC(N)=O [KA313] (H-Y[Sar][Phe(4-NO2)]LR[NMeR][Aoc]-NH2)

>  <experimental-target>
MOP receptor (Homo sapiens, UniProt P35372)

>  <EC50>
> 10 µM

$$$$
>  <compound>
CC(C)C[C@H](NC(=O)[C@H](Cc1ccc(Cl)cc1)NC(=O)CN(C)C(=O)[C@@H](N)Cc1ccc(O)cc1)C(=O)N[C@@H](CCCNC(=N)N)C(=O)N(C)[C@@H](CCCNC(=N)N)C(N)=O [KA309] (H-Y[Sar][Phe(4-Cl)]LR[NMeR]-NH2)

>  <experimental-target>
MOP receptor (Homo sapiens, UniProt P35372)

>  <EC50>
> 10 µM

$$$$
>  <compound>
CC(C)C[C@H](NC(=O)[C@H](Cc1ccc([N+](=O)[O-])cc1)NC(=O)CNC(=O)CNC(=O)[C@@H](N)Cc1ccc(O)cc1)C(=O)N[C@@H](CCCNC(=N)N)C(=O)N[C@H](CCCNC(=N)N)C(N)=O

>  <experimental-target>
MOP receptor (Homo sapiens, UniProt P35372)

>  <EC50>
1.72 µM

$$$$

---

System: FCA model of inflammatory nociception
measurement-setup: rat, in vivo
Where a SMILES comes first, the peptide text is derived from it. [ ]: non-standard residue; d: D form. Phe(4-NO2) = N[C@@H](Cc1ccc([N+](=O)[O-])cc1)C(=O)O; Phe(4-Cl) = N[C@@H](Cc1ccc(Cl)cc1)C(=O)O; NMeR = CN[C@@H](CCCNC(=N)N)C(=O)O; Aoc = NCCCCCCCC(=O)O; Sar = CNCC(=O)O
reported-endpoint: paw withdrawal threshold in the contralateral (uninflamed, untreated) paw

>  <compound>
CC(C)C[C@H](NC(=O)[C@H](Cc1ccc(Cl)cc1)NC(=O)CN(C)C(=O)[C@@H](N)Cc1ccc(O)cc1)C(=O)N[C@@H](CCCNC(=N)N)C(=O)N[C@H](CCCNC(=N)N)C(=O)NCCCCCCCC(N)=O [KA305] (H-Y[Sar][Phe(4-Cl)]LR[dR][Aoc]-NH2)

>  <reported>
not observed

$$$$
>  <compound>
CC(C)C[C@H](NC(=O)[C@H](Cc1ccc([N+](=O)[O-])cc1)NC(=O)CN(C)C(=O)[C@@H](N)Cc1ccc(O)cc1)C(=O)N(C)[C@@H](CCCNC(=N)N)C(=O)N(C)[C@@H](CCCNC(=N)N)C(N)=O [KA311] (H-Y[Sar][Phe(4-NO2)]L[NMeR][NMeR]-NH2)

>  <reported>
not observed

$$$$
>  <compound>
CC(C)C[C@H](NC(=O)[C@H](Cc1ccc([N+](=O)[O-])cc1)NC(=O)CN(C)C(=O)[C@@H](N)Cc1ccc(O)cc1)C(=O)N[C@@H](CCCNC(=N)N)C(=O)N[C@H](CCCNC(=N)N)C(N)=O [KA204] (H-Y[Sar][Phe(4-NO2)]LR[dR]-NH2)

>  <reported>
not observed

$$$$

---

experimental-target: DOP receptor (Homo sapiens, UniProt P41143)
Construct: expressed in transfected cells; host or cells: HEK293
Sequence (P41143 whole entry): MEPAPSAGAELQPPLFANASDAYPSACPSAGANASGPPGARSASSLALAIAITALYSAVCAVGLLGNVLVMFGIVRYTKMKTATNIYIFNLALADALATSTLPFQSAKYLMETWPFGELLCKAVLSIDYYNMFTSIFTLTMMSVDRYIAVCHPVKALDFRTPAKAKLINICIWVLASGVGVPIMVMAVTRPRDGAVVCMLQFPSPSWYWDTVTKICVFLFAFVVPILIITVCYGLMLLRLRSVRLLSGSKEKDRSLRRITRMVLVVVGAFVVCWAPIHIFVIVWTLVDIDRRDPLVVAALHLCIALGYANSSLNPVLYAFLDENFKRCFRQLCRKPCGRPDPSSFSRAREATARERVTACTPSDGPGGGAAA
test-method-notes: cell-based
Where a SMILES comes first, the peptide text is derived from it. [ ]: non-standard residue; d: D form. Phe(4-NO2) = N[C@@H](Cc1ccc([N+](=O)[O-])cc1)C(=O)O; Phe(4-F) = N[C@@H](Cc1ccc(F)cc1)C(=O)O; NMeR = CN[C@@H](CCCNC(=N)N)C(=O)O; Sar = CNCC(=O)O
Selectivity (fold) KOP/DOP reference

>  <molecule>
CC(C)C[C@H](NC(=O)[C@H](Cc1ccc([N+](=O)[O-])cc1)NC(=O)CN(C)C(=O)[C@@H](N)Cc1ccc(O)cc1)C(=O)N[C@H](CCCNC(=N)N)C(=O)N[C@@H](CCCNC(=N)N)C(N)=O [KA205] (H-Y[Sar][Phe(4-NO2)]L[dR]R-NH2)

>  <Selectivity (fold) KOP/DOP>
2 fold

$$$$
>  <molecule>
CC(C)C[C@H](NC(=O)[C@H](Cc1ccc(F)cc1)NC(=O)CN(C)C(=O)[C@@H](N)Cc1ccc(O)cc1)C(=O)N(C)[C@@H](CCCNC(=N)N)C(=O)N[C@H](CCCNC(=N)N)C(N)=O [KA302] (H-Y[Sar][Phe(4-F)]L[NMeR][dR]-NH2)

>  <Selectivity (fold) KOP/DOP>
143 fold

$$$$
>  <molecule>
CC(C)C[C@H](NC(=O)[C@H](Cc1ccc([N+](=O)[O-])cc1)NC(=O)CNC(=O)CNC(=O)[C@@H](N)Cc1ccc(O)cc1)C(=O)N[C@@H](CCCNC(=N)N)C(=O)N[C@H](CCCNC(=N)N)C(N)=O [KA201]

>  <Selectivity (fold) KOP/DOP>
2 fold

$$$$

---

experimental-target: bovine pancreatic trypsin (Bos taurus)
Sequence (P00760 24-246): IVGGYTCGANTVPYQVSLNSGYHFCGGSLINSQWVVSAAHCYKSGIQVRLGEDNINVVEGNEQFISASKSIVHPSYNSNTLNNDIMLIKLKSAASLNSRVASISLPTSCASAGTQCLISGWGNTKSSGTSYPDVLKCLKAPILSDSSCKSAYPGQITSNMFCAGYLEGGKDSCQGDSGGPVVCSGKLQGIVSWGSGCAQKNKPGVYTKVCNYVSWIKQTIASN
test-method-notes: Metabolic stability in trypsin
Format: in vitro ADME
measurement-setup: bovine pancreatic trypsin 2.5 μg/mL, pH 8-8.5, 37°C, peptide 100 μM; read-out: Stability (t1/2) Trypsin
Where a SMILES comes first, the peptide text is derived from it. [ ]: non-standard residue; d: D form. Phe(4-NO2) = N[C@@H](Cc1ccc([N+](=O)[O-])cc1)C(=O)O; Phe(4-Cl) = N[C@@H](Cc1ccc(Cl)cc1)C(=O)O; NMeR = CN[C@@H](CCCNC(=N)N)C(=O)O; Aoc = NCCCCCCCC(=O)O; Ahx = NCCCCCC(=O)O; Sar = CNCC(=O)O
reported-endpoint: half-life (min)

>  <compound>
CC(C)C[C@H](NC(=O)[C@H](Cc1ccccc1)NC(=O)CNC(=O)CNC(=O)[C@@H](N)Cc1ccc(O)cc1)C(=O)N[C@@H](CCCNC(=N)N)C(=O)N[C@@H](CCCNC(=N)N)C(=O)O [Dyn 1-7, reference compound]

>  <reported-endpoint>
half-life

>  <relation-sign>
<

>  <reported>
1

$$$$
>  <compound>
CC(C)C[C@H](NC(=O)[C@H](Cc1ccc(Cl)cc1)NC(=O)CN(C)C(=O)[C@@H](N)Cc1ccc(O)cc1)C(=O)N[C@@H](CCCNC(=N)N)C(=O)N[C@H](CCCNC(=N)N)C(=O)NCCCCCC(N)=O [KA304] (H-Y[Sar][Phe(4-Cl)]LR[dR][Ahx]-NH2)

>  <reported-endpoint>
half-life

>  <relation-sign>
=

>  <reported>
8.33

$$$$
>  <compound>
CC(C)C[C@H](NC(=O)[C@H](Cc1ccc([N+](=O)[O-])cc1)NC(=O)CN(C)C(=O)[C@@H](N)Cc1ccc(O)cc1)C(=O)N[C@@H](CCCNC(=N)N)C(=O)N[C@H](CCCNC(=N)N)C(=O)NCCCCCCCC(N)=O [KA314] (H-Y[Sar][Phe(4-NO2)]LR[dR][Aoc]-NH2)

>  <reported-endpoint>
half-life

>  <relation-sign>
=

>  <reported>
16.1

$$$$
>  <compound>
CC(C)C[C@H](NC(=O)[C@H](Cc1ccc([N+](=O)[O-])cc1)NC(=O)CN(C)C(=O)[C@@H](N)Cc1ccc(O)cc1)C(=O)N(C)[C@@H](CCCNC(=N)N)C(=O)N[C@H](CCCNC(=N)N)C(N)=O [KA303] (H-Y[Sar][Phe(4-NO2)]L[NMeR][dR]-NH2)

>  <reported-endpoint>
half-life

>  <relation-sign>
=

>  <reported>
12.1

$$$$
